Test Readout: melting point

Sample answers from the record:
{"Molecule": "CN(Cc1cccc2c1CN(C1CCC(=O)NC1=O)C2=O)C(=O)Nc1cc(F)cc(F)c1 (centres undefined)", "Result": "228 to 230 °C"}
{"Molecule": "CC[C@H](C1CC1)n1cc(Cl)nc(N2CCc3cc(OC)cc(C)c32)c1=O", "Result": "156 to 158 °C"}
{"Molecule": "CCCCCN(CCCCC)CCCOC(=O)c1ccc2c(c1)-c1ccc(C(=O)OCCCN(CCCCC)CCCCC)c3cccc-2c13", "Result": "148 to 151 °C"}
{"Molecule": "CN[C@@H]1CN(c2nc3c(cc2F)c(=O)c(C(=O)O)cn3C(C)(C)C)[C@H]1C (relative stereo)", "Result": "185 to 187 °C"}
{"Molecule": "Nc1nccc(OCCc2ccccc2)c1N", "Result": "86 to 87 °C"}
{"Molecule": "NC(=O)c1cc(Br)ccc1Nc1ccncc1", "Result": "298 to 299 °C"}

Fill in the blank: the reported melting point of O=C(OCC1OC(n2cc(F)c(=O)[nH]c2=O)CC1OCc1ccccc1)c1cccnc1 (centres undefined) is ____. 130 to 132 °C

Fill in the blank: the reported melting point of NC1=NC(c2ccc(OC(F)(F)F)cc2)(c2cccc(-c3cccnc3F)c2)C2=NOCCN12 (centres undefined) is ____. 102 to 117 °C

Fill in the blank: the reported melting point of O=S(=O)(c1ccc(N2CCCCC2)cc1)N1CCCC1=S is ____. 195 to 200 °C
